- experimental protocol: Solubility of compounds in sodium chloride solution
- Type: physicochemical
- condition summary: 0.9% sodium chloride solution (normal saline), saline or isotonic, thermodynamic from solid; 0.9% NaCl solution (normal saline); methanesulfonic acid salts; ambient temperature; read-out: S2 = Solubility in 0.9% NaCl Solution (normal Saline)
Reported solubility is given for each of the following compounds.

# compound, solubility
records = [
    ("CN(C)CCCCNC(=O)COc1ccc(CCCCNC(=N)NC(=O)c2nc(Cl)c(N)nc2N)cc1", "> 5000 µg/mL"),
    ("N=C(NCCCCc1ccc(OCC(N)=O)cc1)NC(=O)c1nc(Cl)c(N)nc1N [PSA 9714, reference compound]", "< 100 µg/mL"),
    ("N=C(NCCCCc1ccc(OCC(=O)NCCN(CCO)CCO)cc1)NC(=O)c1nc(Cl)c(N)nc1N", "> 5000 µg/mL"),
]

* * *

Structures can show the parent of a compound that is named as a salt.
Reported melting point is given for each of the following compounds.
result type: melting point

# compound, recorded value
records = [
    ("CN(C)CCNC(=O)COc1ccc(CCCCNC(=N)NC(=O)c2nc(Cl)c(N)nc2N)cc1 [PSA 23185a]", "97 to 99 °C"),
    ("N=C(NCCCCc1ccc(OCC(=O)NCCN)cc1)NC(=O)c1nc(Cl)c(N)nc1N", "105 to 107 °C (dec.)"),
    ("N=C(NCCCCc1ccc(OCC(=O)NCCN(CCO)CCO)cc1)NC(=O)c1nc(Cl)c(N)nc1N", "87 to 89 °C"),
    ("CN(C)CCCNC(=O)COc1ccc(CCCCNC(=N)NC(=O)c2nc(Cl)c(N)nc2N)cc1 (as salt: methanesulfonate) [PSA 24304, dimethanesulfonate]", "187 to 190 °C"),
]

* * *

Reported Fold Amiloride (PSA4022 = 100) is given for each of the following compounds.
- system under test: Epithelial Sodium Channel (ENaC) (Canis lupus familiaris, UniProt A0A8I3MKE6+A0A8I3Q679+Q95165)
- Construct: endogenous in cells; host or cells: primary canine bronchial epithelial cells from freshly excised airways, cultured at air-liquid interface and mounted in Ussing chambers
- Sequence (A0A8I3Q679 1-649): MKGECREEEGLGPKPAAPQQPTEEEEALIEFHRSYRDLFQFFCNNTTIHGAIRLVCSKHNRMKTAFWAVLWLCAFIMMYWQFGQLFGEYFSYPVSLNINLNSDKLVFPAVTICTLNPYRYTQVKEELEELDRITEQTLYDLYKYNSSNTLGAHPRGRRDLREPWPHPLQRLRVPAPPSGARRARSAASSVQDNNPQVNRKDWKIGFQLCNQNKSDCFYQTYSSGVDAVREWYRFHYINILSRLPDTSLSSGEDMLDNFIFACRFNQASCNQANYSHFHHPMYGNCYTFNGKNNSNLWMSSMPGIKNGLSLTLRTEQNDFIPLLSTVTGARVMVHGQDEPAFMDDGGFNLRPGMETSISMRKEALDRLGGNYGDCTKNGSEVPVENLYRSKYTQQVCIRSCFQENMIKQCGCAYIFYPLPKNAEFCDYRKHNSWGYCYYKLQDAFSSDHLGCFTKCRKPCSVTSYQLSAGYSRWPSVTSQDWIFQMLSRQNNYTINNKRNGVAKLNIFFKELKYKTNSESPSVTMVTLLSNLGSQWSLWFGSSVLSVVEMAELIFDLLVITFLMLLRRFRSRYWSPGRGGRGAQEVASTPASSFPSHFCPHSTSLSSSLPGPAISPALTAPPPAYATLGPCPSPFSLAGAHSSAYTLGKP
- Sequence (Q95165 1-641): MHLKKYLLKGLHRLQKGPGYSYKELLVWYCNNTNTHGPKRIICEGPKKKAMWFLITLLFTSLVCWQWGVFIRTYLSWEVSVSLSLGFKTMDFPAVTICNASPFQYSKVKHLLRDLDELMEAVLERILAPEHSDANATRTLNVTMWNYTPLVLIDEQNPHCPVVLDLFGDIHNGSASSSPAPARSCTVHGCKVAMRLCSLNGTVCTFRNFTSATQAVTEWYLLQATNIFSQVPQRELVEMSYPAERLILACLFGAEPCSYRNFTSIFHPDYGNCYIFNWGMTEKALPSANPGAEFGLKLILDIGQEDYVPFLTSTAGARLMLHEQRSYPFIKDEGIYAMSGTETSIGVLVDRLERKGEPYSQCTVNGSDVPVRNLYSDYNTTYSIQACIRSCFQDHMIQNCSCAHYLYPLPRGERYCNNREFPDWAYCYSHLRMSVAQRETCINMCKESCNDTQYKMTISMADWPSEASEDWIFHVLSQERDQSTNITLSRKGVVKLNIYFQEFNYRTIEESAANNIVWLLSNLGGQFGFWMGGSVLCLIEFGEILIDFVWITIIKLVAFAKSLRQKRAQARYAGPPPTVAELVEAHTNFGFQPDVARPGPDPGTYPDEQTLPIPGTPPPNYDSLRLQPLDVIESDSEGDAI
- Sequence (A0A8I3MKE6 1-646): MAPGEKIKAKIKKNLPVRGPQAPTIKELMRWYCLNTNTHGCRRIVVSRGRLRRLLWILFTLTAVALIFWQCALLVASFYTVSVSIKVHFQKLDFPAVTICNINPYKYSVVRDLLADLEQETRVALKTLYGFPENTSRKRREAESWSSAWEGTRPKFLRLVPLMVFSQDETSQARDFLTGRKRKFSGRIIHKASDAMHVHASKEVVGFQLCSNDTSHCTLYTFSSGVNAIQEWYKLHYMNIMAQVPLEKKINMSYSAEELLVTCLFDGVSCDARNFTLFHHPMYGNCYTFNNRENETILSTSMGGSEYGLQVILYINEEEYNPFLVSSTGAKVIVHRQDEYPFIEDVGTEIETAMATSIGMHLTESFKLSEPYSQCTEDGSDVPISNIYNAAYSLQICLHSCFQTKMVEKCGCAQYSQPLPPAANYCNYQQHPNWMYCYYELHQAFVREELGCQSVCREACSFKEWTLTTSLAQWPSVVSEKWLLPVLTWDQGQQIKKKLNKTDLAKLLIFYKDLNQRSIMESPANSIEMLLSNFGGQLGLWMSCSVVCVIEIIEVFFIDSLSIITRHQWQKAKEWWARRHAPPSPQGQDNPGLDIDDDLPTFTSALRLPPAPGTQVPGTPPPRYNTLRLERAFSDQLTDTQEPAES
- experimental protocol: Sodium channel (ENaC) blocking activity, short circuit current in airway epithelial monolayers in Ussing chambers
- Format: cell-based
- condition summary: relative potency, PSA4022 = 100, using IC50 from PSA4022 in same run; canine bronchial epithelium; Table 4
Structures can show the parent of a compound that is named as a salt.

# compound, Fold Amiloride (PSA4022 = 100)
measured = [
    ("N=C(NCCCCc1ccc(OCC(=O)OCCN)cc1)NC(=O)c1nc(Cl)c(N)nc1N [PSA 25454, dihydrochloride]", 44),
    ("CC(C)(C)OC(=O)NCCOC(=O)COc1ccc(CCCCNC(N)=NC(=O)c2nc(Cl)c(N)nc2N)cc1", 119),
    ("N=C(NCCCCc1ccc(OCC(=O)OCCN2CCCCC2)cc1)NC(=O)c1nc(Cl)c(N)nc1N", 38),
    ("N=C(NCCCCc1ccc(OCC(=O)OCC2CCNCC2)cc1)NC(=O)c1nc(Cl)c(N)nc1N [PSA 25720, dihydrochloride]", 189),
]

* * *

Reported IC50 is given for each of the following compounds.
- system under test: Epithelial Sodium Channel (ENaC) (Canis lupus familiaris, UniProt A0A8I3MKE6+A0A8I3Q679+Q95165)
- Construct: endogenous in cells; host or cells: primary canine bronchial epithelial cells from freshly excised airways, cultured at air-liquid interface and mounted in Ussing chambers
- experimental protocol: Sodium channel (ENaC) blocking activity, short circuit current in airway epithelial monolayers in Ussing chambers
- Format: cell-based
- condition summary: canine bronchial epithelium; Table 4; read-out: IC50 (nM), Epithelial Sodium Channel Blocking Activity of Selected Esters
Where a name gives a salt, the structure may show the parent alone.

# compound, result units, IC50
rows = [
    ("N=C(NCCCCc1ccc(OCC(=O)OCCN2CCCCC2)cc1)NC(=O)c1nc(Cl)c(N)nc1N", "nM", 19),
    ("N=C(NCCCCc1ccc(OCC(=O)OCCN)cc1)NC(=O)c1nc(Cl)c(N)nc1N [PSA 25454, dihydrochloride]", "nM", 12),
    ("CC(C)(C)OC(=O)NCCOC(=O)COc1ccc(CCCCNC(N)=NC(=O)c2nc(Cl)c(N)nc2N)cc1", "nM", 4),
    ("N=C(NCCCCc1ccc(OCC(=O)OCC2CCNCC2)cc1)NC(=O)c1nc(Cl)c(N)nc1N [PSA 25720, dihydrochloride]", "nM", 3),
]

* * *

- experimental protocol: Solubility of compounds in sodium chloride solution
- Type: physicochemical
- condition summary: 0.12% sodium chloride solution, saline or isotonic, thermodynamic from solid; 0.12% saline solution; read-out: solubility in 0.12% saline solution
- Protocol: Compound solubility was measured in water, 0.12 or 0.9% sodium chloride solution at ambient temperature for up to 10 days. Using a UV/Visable Spectrophotometer and applying Beer's Law with the calculated extinction coeffecient of amiloride (18.6 mM, absorbance values at 362 nm taken from D. Mazzo 1986) the free base concentration in solution was calculated at specified time points. […]

# molecule, solubility
measured = [
    ("CS(=O)(=O)O.CS(=O)(=O)O.N=C(NCCCCc1ccc(C(=O)N2CCNCC2)cc1)NC(=O)c1nc(Cl)c(N)nc1N [PSA23607]", "> 5000 µg/mL"),
]

Data credit: patent US8008494B2
